- TARGET_OR_TEST_SYSTEM: T1, NDP52-FL (Human, UniProt Q13137 1-446)
- T1 sequence: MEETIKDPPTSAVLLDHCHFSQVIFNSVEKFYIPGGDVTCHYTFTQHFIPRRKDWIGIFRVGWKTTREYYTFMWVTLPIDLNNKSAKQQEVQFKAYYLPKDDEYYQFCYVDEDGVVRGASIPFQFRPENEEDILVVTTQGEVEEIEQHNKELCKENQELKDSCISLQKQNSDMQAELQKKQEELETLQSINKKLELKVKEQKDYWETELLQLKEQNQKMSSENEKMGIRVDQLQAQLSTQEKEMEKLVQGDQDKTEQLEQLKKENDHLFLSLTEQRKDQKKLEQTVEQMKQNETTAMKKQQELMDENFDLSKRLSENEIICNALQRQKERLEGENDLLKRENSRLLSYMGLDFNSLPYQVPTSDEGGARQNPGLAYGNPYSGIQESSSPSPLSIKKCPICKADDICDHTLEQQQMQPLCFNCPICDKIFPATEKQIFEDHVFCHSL
- ASSAY_PROCEDURE: fluorescence titration, competition; with and without ss40 competitor; Fluorescence: 100 nM DNA, 50 mM Tris-HCl pH 7.5, 150 mM NaCl, 1 mM DTT; EMSA: 50 mM Tris-HCl pH 7.5, 50 mM NaCl, 3 mM MgCl2, 5 min; temperature not stated
- CONDITION_DESCRIPTION: protein: recombinant; tags: His-tag (pET151); chain copies: 2; label: 3' FAM (called FITC in Methods) on strand 1 for fluorescence; blunt
OUTCOME_MEASURE: Kd

{"columns": ["BINDER", "REPORTED_VALUE"],
 "data": [
  ["ds40 (dsDNA) DNA 1: TTAGTTGTTCGTAGTGCTCGTCTGGCTCTGGATTACCCGC DNA 2: GCGGGTAATCCAGAGCCAGACGAGCACTACGAACAACTAA", "< 100 nM"]
]}

The reported measurements were obtained from paper PMC10195817.
